# ASSAY_SUMMARY: Human HepG2 cell viability assay in 384 well format
# Assay type: toxicity, cell-based
# Design: dose 125 nL, time 70.5 hour; concentration not given beside the values
# CONDITION_DETAILS: HepG2 cells, read-out: Inhibition
OBSERVATION_TYPE: cytotoxicity at 70.5 h (%)
Unit % implied. Number only.

Find the recorded cytotoxicity at 70.5 h belonging to CCOc1cccc(CNc2ccccc2Cl)c1O and report it. -4.02

Find the recorded cytotoxicity at 70.5 h belonging to CC(NC(=O)NCCCn1cncn1)c1ccc(C#N)cc1 (stereo not given) and report it. 1.25

Find the recorded cytotoxicity at 70.5 h belonging to c1ccc(N2CC[C@H](OCC3CC3)[C@@H]2Cc2cccnc2)nc1 and report it. -3.44

***
Find the recorded cytotoxicity at 70.5 h belonging to CN1CCc2onc(CNc3ncccn3)c2C1 and report it. -25.4

Find the recorded cytotoxicity at 70.5 h belonging to COc1cc(N2CC[C@@H]3O[C@@H](c4ccncn4)C[C@H]3C2)ncn1 and report it. 7.96

Find the recorded cytotoxicity at 70.5 h belonging to CC(C)N(C)S(=O)(=O)N1CCN(Cc2ccco2)CC1 and report it. -5.12

Find the recorded cytotoxicity at 70.5 h belonging to CC(C)N1CC[C@H]2[C@H](C[C@@H](Cn3cncn3)N2c2nccs2)C1 and report it. -6.46

====

Here, each record is paired with measured cytotoxicity at 70.5 h data.
# ASSAY_SUMMARY: Human HepG2 cell viability assay in 384 well format
# Type: toxicity, cell-based
# Design: dose 125 nL, time 70.5 hour; concentration not given beside the values
# CONDITION_DETAILS: HepG2 cells, read-out: Inhibition
Unit % implied. Number only.

Examples with their reported cytotoxicity at 70.5 h follow.
Find the recorded cytotoxicity at 70.5 h belonging to Cc1cccc(C)c1OCCNC(=O)CNC(=O)C1CCCC1 and report it. 23.5

Find the recorded cytotoxicity at 70.5 h belonging to CN(C)Cc1cn2c(n1)CN(C(=O)Cc1ccsc1)CC2 and report it. -0.503

***
Find the recorded cytotoxicity at 70.5 h belonging to O=C(NCC1CCOCC1)[C@H]1C[C@@H]2CCN(Cc3ccccc3)C[C@H]2O1 and report it. -7.17

Find the recorded cytotoxicity at 70.5 h belonging to CN(Cc1n[nH]c(=O)n1Cc1cccs1)S(C)(=O)=O and report it. -0.816

Find the recorded cytotoxicity at 70.5 h belonging to COc1ccc(CC(=O)N2CC(=O)NCC(C)(C)C2)cc1 and report it. 14.8

Find the recorded cytotoxicity at 70.5 h belonging to O=C(O)c1nnn(-c2ccc(Cl)c(C(F)(F)F)c2)c1-c1ccncc1 and report it. -26.7

Find the recorded cytotoxicity at 70.5 h belonging to CC(C)n1ccnc1CN1C(=O)OC[C@@H]1c1ccccc1 and report it. -2.47

====

# ASSAY_SUMMARY: Human HepG2 cell viability assay in 384 well format
# Format: toxicity, cell-based
# Set-up: dose 125 nL, time 70.5 hour; concentration not given beside the values
# CONDITION_DETAILS: HepG2 cells, read-out: Inhibition
Here, each record is paired with measured cytotoxicity at 70.5 h data.
Unit % implied. Number only.

Examples with their reported cytotoxicity at 70.5 h follow.
Find the recorded cytotoxicity at 70.5 h belonging to Fc1ccc2[nH]c(CO[C@H]3CN(CC4CC4)C[C@H]3F)nc2c1 and report it. 1.66

Find the recorded cytotoxicity at 70.5 h belonging to O=C(Nc1ccc(Cl)cn1)C1CCN(CCc2ccccn2)CC1 and report it. -1.68

***
Find the recorded cytotoxicity at 70.5 h belonging to Cc1nn(C)c(N2CCOCC2)c1CNC1CCc2ccccc21 (centres undefined) and report it. -7.04

Find the recorded cytotoxicity at 70.5 h belonging to CCN(CC)c1ncc(CNC2CCc3nc(C(C)C)nn3C2)s1 (centres undefined) and report it. -5.99

Find the recorded cytotoxicity at 70.5 h belonging to CN1CC2(CCN(Cc3ncc[nH]3)CC2)CC1=O and report it. -4.6

Find the recorded cytotoxicity at 70.5 h belonging to Cc1ccc(-c2nnc(CN3CCOCC(CO)C3)o2)n1C (centres undefined) and report it. -3.57

Find the recorded cytotoxicity at 70.5 h belonging to CC(=O)c1cccc(NC(=O)NCCc2nnc[nH]2)c1 and report it. -10.6
